Values compiled from the supplement of paper PMC7125110.

Below, each entry is listed alongside its reported self-cleavage kobs at 640 uM GlcN6P.
B1: glmS ribozyme (parent)
chain: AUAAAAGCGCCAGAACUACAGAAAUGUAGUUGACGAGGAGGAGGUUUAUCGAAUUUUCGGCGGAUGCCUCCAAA

# Variants of: B1
# testDescription: self-cleavage kobs at 640 uM GlcN6P; higher = faster cleavage; RNA array
# details: with glucosamine-6-phosphate
This sample holds only a part of the variants without activity.

# variantSpec, self-cleavage kobs at 640 uM GlcN6P
records = [
    ("A36G U47A", "< 1e-05 s⁻¹"),
    ("G32U C58A C67A", "7.59e-05 s⁻¹"),
    ("C34U A36G", "< 1e-05 s⁻¹"),
    ("A12C U46A G62C", "< 1e-05 s⁻¹"),
    ("U55A U57G", "2.18e-05 s⁻¹"),
    ("A12C C16U G41U", "0.000163 s⁻¹"),
    ("G13C G37U A39U", "< 1e-05 s⁻¹"),
    ("C11U G29C C34A G37U", "< 1e-05 s⁻¹"),
    ("C8A C11G G38U G60A", "< 1e-05 s⁻¹"),
    ("U45G G60U G62C C70U", "< 1e-05 s⁻¹"),
    ("U55G G66U", "0.00054 s⁻¹"),
    ("G41U A42G G44A A48G", "< 1e-05 s⁻¹"),
    ("C34G U46A U49A", "< 1e-05 s⁻¹"),
    ("A42C G44A", "< 1e-05 s⁻¹"),
    ("U30C A33C", "< 1e-05 s⁻¹"),
    ("C11U C61A C67G", "8.2e-05 s⁻¹"),
    ("U31G G43C", "< 1e-05 s⁻¹"),
    ("A15C G32U A33C", "< 1e-05 s⁻¹"),
    ("C16U U55G U69G", "8.62e-05 s⁻¹"),
    ("G35C G63C", "< 1e-05 s⁻¹"),
    ("G51C U57G", "< 1e-05 s⁻¹"),
    ("G41A A53U U54G", "0.000241 s⁻¹"),
]
